Task for the reader: assign each of the following compounds its reported FS CDK4/CDK2.
# test system: Cyclin Dependent Kinase 2/Cyclin E1 (CDK2-cycE1) (Homo sapiens, UniProt P24941)
# Construct: purchased ProQinase 0050-0055-1
# test name: CDK2-cycE1 TR-FRET (LANCE) enzyme assay
# Format: biochemical
# experimental context: Table O, fold selectivity, enzymatic CDK4 Ki over CDK2 Ki
Form field (numeric): enter value without unit.

Measured FS CDK4/CDK2, Cc1nccc(Nc2cc([C@H]3CC[C@@H](OC(=O)NC(C)C)C3)[nH]n2)n1 [Example 2O] : 290

Measured FS CDK4/CDK2, Cc1nc(C(=O)N(C)C)ccc1Nc1cc([C@H]2CC[C@@H](OC(=O)NC3(C)CC3)C2)[nH]n1 [Example 7] : 110

Measured FS CDK4/CDK2, Cc1cnccc1Nc1cc([C@H]2CC[C@@H](OC(=O)NC34CC(C3)C4)C2)[nH]n1 [Example 9G] : 110

Measured FS CDK4/CDK2, COc1nccc(Nc2cc([C@H]3CC[C@@H](OC(=O)NC(C)C)C3)[nH]n2)n1 [Example 2F] : 270

----------
# test system: Cyclin Dependent Kinase 1/Cyclin A2 (CDK1-cycA2) (Homo sapiens)
# Construct: purchased ProQinase 0134-0054-1
# Sequence (P06493 whole entry): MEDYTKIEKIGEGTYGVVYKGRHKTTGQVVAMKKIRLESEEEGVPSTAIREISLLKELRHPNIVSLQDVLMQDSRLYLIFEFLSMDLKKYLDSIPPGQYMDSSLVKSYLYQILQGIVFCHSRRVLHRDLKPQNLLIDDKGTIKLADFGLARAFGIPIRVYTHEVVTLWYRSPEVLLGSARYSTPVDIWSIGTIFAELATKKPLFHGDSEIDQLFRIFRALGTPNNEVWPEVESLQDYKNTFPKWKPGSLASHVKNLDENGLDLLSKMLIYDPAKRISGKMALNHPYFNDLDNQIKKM
# Sequence (P20248 whole entry partner): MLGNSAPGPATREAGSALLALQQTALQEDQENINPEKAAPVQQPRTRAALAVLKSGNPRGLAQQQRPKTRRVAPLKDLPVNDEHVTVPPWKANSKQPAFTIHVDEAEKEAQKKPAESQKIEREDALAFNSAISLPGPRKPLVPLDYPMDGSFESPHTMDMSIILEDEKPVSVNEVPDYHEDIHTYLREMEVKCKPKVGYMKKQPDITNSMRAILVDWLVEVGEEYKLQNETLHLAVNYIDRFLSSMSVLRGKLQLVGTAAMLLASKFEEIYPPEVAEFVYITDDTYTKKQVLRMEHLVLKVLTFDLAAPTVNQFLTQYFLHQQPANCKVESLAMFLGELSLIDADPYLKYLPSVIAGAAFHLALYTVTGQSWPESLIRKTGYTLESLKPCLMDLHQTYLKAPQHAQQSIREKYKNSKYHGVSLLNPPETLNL
# test name: CDK1-cycA2 TR-FRET (Lance) enzyme assay
# Type: biochemical
# experimental context: Table O, enzymatic assay
assay metric: pKi
Scale explanation: pKi corresponds to minus log10 of a concentration expressed in moles per litre.

Measured pKi, Cc1ncccc1Nc1cc([C@H]2CC[C@@H](OC(=O)NC(C)(C)C)C2)[nH]n1 [Example 4] : 7.60

Measured pKi, C[C@H](NC(=O)O[C@@H]1CC[C@H](c2cc(Nc3ccc(=O)n(C)n3)n[nH]2)C1)c1ccccc1 [Example 6E] : 7.32

Measured pKi, CC[C@@H](C)NC(=O)O[C@@H]1CC[C@H](c2cc(Nc3cccnn3)n[nH]2)C1 (single isomer, unassigned) [Example 3C] : 6.30

Measured pKi, Cc1nccnc1Nc1cc([C@H]2CC[C@@H](OC(=O)NC(C)C)C2)[nH]n1 [Example 2T] : 7.19

Measured pKi, O=C(NC1(C(F)(F)F)CC1)O[C@@H]1CC[C@H](c2cc(Nc3cccnn3)n[nH]2)C1 [Example 5] : 6.57

Measured pKi, CC(C)NC(=O)O[C@@H]1CC[C@H](c2cc(Nc3cnccn3)n[nH]2)C1 [Example 2E] : 8.08

Measured pKi, Cn1c(Nc2cc([C@H]3CC[C@@H](OC(=O)NC(C)(C)C)C3)[nH]n2)ccnc1=O [Example 8A] : 4.96

Measured pKi, CC(C)NC(=O)O[C@@H]1CC[C@H](c2cc(Nc3cncc(C(F)(F)F)n3)n[nH]2)C1 [Example 2R] : 9.40

Measured pKi, CC(C)NC(=O)O[C@@H]1CC[C@H](c2cc(Nc3cccnc3)n[nH]2)C1 [Example 2A] : 7.15

Measured pKi, CC(C)NC(=O)O[C@@H]1CC[C@H](c2cc(Nc3ccc(-n4cccn4)nc3)n[nH]2)C1 [Example 2D] : 6.46

Measured pKi, Cn1nc(Nc2cc([C@H]3CC[C@@H](OC(=O)NC(C)(C)C(F)F)C3)[nH]n2)ccc1=O [Example 5C] : 8.03

Measured pKi, Cc1ccc(Nc2cc([C@H]3CC[C@@H](OC(=O)NC(C)(C)C)C3)[nH]n2)cn1 [Example 4B] : 7.70

Measured pKi, CCn1nc(Nc2cc([C@H]3CC[C@@H](OC(=O)NC(C)C)C3)[nH]n2)ccc1=O [Example 2HH] : 8.16

Measured pKi, O=C(NC1CCOCC1)O[C@@H]1CC[C@H](c2cc(Nc3cccnn3)n[nH]2)C1 [Example 3D] : 5.85

Measured pKi, CNc1ncc(Nc2cc([C@H]3CC[C@@H](OC(=O)NC(C)C)C3)[nH]n2)cn1 [Example 2GG] : 5.06

Measured pKi, CNC(=O)c1cc(C)c(Nc2cc([C@H]3CC[C@@H](OC(=O)NC45CC(C4)C5)C3)[nH]n2)cn1 [Example 9C] : 6.72

Measured pKi, Cc1ccncc1Nc1cc([C@H]2CC[C@@H](OC(=O)NC(C)(C)C)C2)[nH]n1 [Example 4A] : 6.68

Measured pKi, CN(C(=O)O[C@@H]1CC[C@H](c2cc(Nc3ccc(=O)n(C)n3)n[nH]2)C1)C(C)(C)C [Example 6B] : 9.11

Measured pKi, CC[C@H](C)NC(=O)O[C@@H]1CC[C@H](c2cc(Nc3cccnn3)n[nH]2)C1 (single isomer, unassigned) [Example 3B] : 6.70

Measured pKi, CC(C)NC(=O)O[C@@H]1CC[C@H](c2cc(Nc3ccc(=O)n(C)n3)n[nH]2)C1 [Example 2] : 7.80

Measured pKi, CC(C)(C)NC(=O)O[C@@H]1CC[C@H](c2cc(Nc3ccncc3)n[nH]2)C1 [Example 4H] : 6.74

Measured pKi, COc1cc(=O)n(C)cc1Nc1cc([C@H]2CC[C@@H](OC(=O)NC34CC(C3)C4)C2)[nH]n1 [Example 10] : 5.29
